# targetEntity: FAAH (Homo sapiens)
# Sequence (O00519 whole entry): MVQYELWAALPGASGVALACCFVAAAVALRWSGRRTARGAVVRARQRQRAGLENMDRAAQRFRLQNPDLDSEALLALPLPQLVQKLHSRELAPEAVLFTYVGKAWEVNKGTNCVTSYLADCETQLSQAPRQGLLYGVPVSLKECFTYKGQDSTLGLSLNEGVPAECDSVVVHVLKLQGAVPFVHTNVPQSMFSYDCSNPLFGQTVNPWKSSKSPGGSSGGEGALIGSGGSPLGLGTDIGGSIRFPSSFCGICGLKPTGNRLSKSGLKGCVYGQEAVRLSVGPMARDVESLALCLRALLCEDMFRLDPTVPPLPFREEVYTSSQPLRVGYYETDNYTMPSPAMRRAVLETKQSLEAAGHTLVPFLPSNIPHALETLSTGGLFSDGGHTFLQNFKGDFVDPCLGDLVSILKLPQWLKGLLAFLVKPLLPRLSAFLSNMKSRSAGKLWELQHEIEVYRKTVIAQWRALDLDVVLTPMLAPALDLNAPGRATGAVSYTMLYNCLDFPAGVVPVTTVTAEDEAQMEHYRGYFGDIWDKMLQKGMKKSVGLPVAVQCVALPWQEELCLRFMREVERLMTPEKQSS
# protocol: Human FAAH assay (Assay Method 1), 3H-anandamide hydrolysis in cell homogenate
Counter-ions that a name gives are not always drawn.
observationType: IC50 (nM)

Cc1ccc2sc(-c3cc(NC[C@H](N)c4ccccc4)ncn3)cc2c1 ... 20
N#Cc1cc([C@@H](N)CNc2cc(-c3ccc(C(F)(F)F)c(Cl)c3)ncn2)ccc1F ... 320
CCSc1ccc(-c2cc(NC[C@H](N)c3ccccc3)ncn2)cc1 ... 7
N[C@@H](CNc1cc(-c2ccc(OC(F)(F)F)cc2)ncn1)c1ccccc1 ... 82
O=C(N[C@@H](CNc1cc(-c2ccc(C(F)(F)F)c(Cl)c2)ncn1)c1ccccc1)C(F)(F)F ... 1600

[1] N#Cc1cccc([C@@H](N)CNc2cc(-c3ccc(C(F)(F)F)c(Cl)c3)ncn2)c1
[2] N[C@H](CNc1cc(-c2ccc(C(F)(F)F)c(Cl)c2)ncn1)c1ccc(Cl)cc1 [Example 38, trifluoroacetic acid salt]
[3] N[C@@H](CNc1cc(-c2ccc(C(F)(F)F)c(Cl)c2)ncn1)c1ccc2c(c1)OC(F)(F)O2
[4] CSc1ccc([C@@H](N)CNc2cc(-c3ccc(C(F)(F)F)c(Cl)c3)ncn2)cc1
Thanks in advance: please rank these 4 entries by IC50, highest to lowest. Output spec: labels arranged per the requested ranking.
2, 1, 4, 3
(2: 1600 nM, 1: 1000 nM, 4: 220 nM, 3: 30 nM)

[a] N[C@H](CNc1cc(-c2ccc(C(F)(F)F)c(Cl)c2)ncn1)c1ccccc1
[b] CCOc1ccc(-c2cc(NC[C@H](N)c3ccccc3)ncn2)cc1
[c] N[C@@H](CNc1cc(-c2ccc3c(C(F)(F)F)noc3c2)ncn1)c1ccccc1
Write the entries in order, lowest recorded IC50 first. Output spec: labels arranged per the requested ranking.
c, b, a
(c: 44 nM, b: 70 nM, a: 1300 nM)

[1] COc1ccccc1[C@@H](N)CNc1cc(-c2ccc(C(F)(F)F)c(Cl)c2)ncn1
[2] N[C@@H](CNc1cc(-c2ccc(C(F)(F)F)c(Cl)c2)ncn1)c1ccc(C(F)(F)F)cc1
[3] N[C@@H](CNc1cc(-c2ccc(C(F)(F)F)c(Cl)c2)ncn1)c1ccc(Cl)cc1 [Example 39, trifluoroacetic acid salt]
Write the entries in order, lowest recorded IC50 first. Output spec: labels arranged per the requested ranking.
3, 2, 1

[A] N[C@H](CNc1cc(-c2ccc(C(F)(F)F)c(Cl)c2)ncn1)c1ccc2c(c1)OC(F)(F)O2
[B] N[C@@H](CNc1cc(-c2ccc(OCC(F)(F)F)c(F)c2)ncn1)c1ccccc1
Problem: Given the entries A and B , determine which has the lower reported IC50. // return label of chosen record
B

[1] N[C@@H](CNc1cc(-c2ccc(C(F)(F)F)c(Cl)c2)ncn1)c1ccc(F)c(Cl)c1
[2] N[C@@H](CNc1cc(-c2ccc(Cl)c(C(F)(F)F)c2)ncn1)c1ccccc1
Problem: Given the entries 1 and 2 , determine which has the lower reported IC50. // return label of chosen record
1
(1: 120 nM, 2: 250 nM)

[A] N[C@@H](CNc1cc(-c2cc3cc(OC(F)(F)F)ccc3s2)ncn1)c1ccccc1
[B] NC(CNc1cc(-c2ccc(C(F)(F)F)c(Cl)c2)ncn1)c1ccccc1F (centres unmarked)
Problem: Given the entries A and B , determine which has the lower reported IC50. // return label of chosen record
A

[a] N[C@@H](CNc1cc(-c2ccc(C(F)(F)F)c(F)c2)ncn1)c1ccccc1
[b] N#Cc1ccc([C@H](N)CNc2cc(-c3ccc(C(F)(F)F)c(Cl)c3)ncn2)cc1
[c] N[C@@H](CNc1cc(-c2cc(F)c(OC(F)F)c(F)c2)ncn1)c1ccccc1
Write the entries in order, lowest recorded IC50 first. Output spec: labels arranged per the requested ranking.
c, a, b
(c: 12 nM, a: 100 nM, b: 570 nM)

[P] N#Cc1ccc([C@@H](N)CNc2cc(-c3ccc(C(F)(F)F)c(Cl)c3)ncn2)cc1F
[Q] N[C@@H](CNc1cc(-c2ccc(C(F)(F)F)c(Cl)c2)ncn1)c1ccc(Cl)c(Cl)c1
Problem: Given the entries P and Q , determine which has the lower reported IC50. // return label of chosen record
P
